target: Lysine--tRNA ligase (Plasmodium falciparum (isolate 3D7)); assay: Pf-KRS-1 (Lysyl-RNA Synthetase-1, KRS-1, cytosolic KRS) from Plasmodium falciparum. Inhibitor assay, 384 well plate, luminescence read.; assay type: functional; parameters: scale not given: in the data most compounds retested in dose-response had high values; settings: 30 µM
The whole screen tested about 69,000 compounds, of which about 50 (0.07%) showed an effect of 50% or more. The entries come from a sample that favours strong results as a whole.
# Percent Effect per entry
PROPERTY: Percent Effect (%)

>>> print(df.to_string())
                                    compound  reading
 0  CCOCC1CN(Cc2ccc(OC)cc2)Cc2nn(CC3CC3)cc21 (stereo unspecified)     60.3
 1  Cc1noc(C)c1CN1CC[C@H]2[C@@H]1CCC(=O)N2CC1CCOCC1     3.41
 2  O=S1(=O)C[C@@H]2[C@H](C1)N(Cc1ccoc1)CCN2Cc1ccncc1     8.97
 3  COCCn1cc(NC(=O)NC(C)CCc2ccccc2)ccc1=O (stereo unspecified)     64.7
 4  O=C(c1cccnc1)N1C[C@H]2CN(Cc3cccc(F)c3)C(=O)[C@H]2C1     7.87
 5  CO[C@H]1CC[C@H]2[C@H]1OCCN2Cc1ccc(F)c(F)c1    -6.11
 6  CC(NC(=O)C1=NN(C)C(=O)CC1)c1ccc(Cl)cc1Cl (stereo unspecified)     57.8
 7  CCC(=O)N1CC[C@H]2C(=O)N(Cc3ccc(OC)cc3)CCO[C@H]2C1     4.55
 8  Cc1c(Cl)cccc1S(=O)(=O)N1C[C@@H]2CC[C@H](C1)N(C)C2=O     3.71
 9  Cc1noc(C)c1CN1CC[C@H]2[C@H]1CCN2CC1CCOCC1       59
10  CCOCC1CN(Cc2ccc(OC)cc2)Cc2nn(C)cc21 (stereo unspecified)     -4.8

----------
# Percent Effect per entry
molecular target: Lysine--tRNA ligase (Plasmodium falciparum (isolate 3D7)); assay: Pf-KRS-1 (Lysyl-RNA Synthetase-1, KRS-1, cytosolic KRS) from Plasmodium falciparum. Inhibitor assay, 384 well plate, luminescence read.; assay type: functional; parameters: scale not given: in the data most compounds retested in dose-response had high values; details: 30 µM
Among all 69,000 compounds or so, about 50 (0.07%) showed an effect of 50% or more. Shown is part of a subset that was picked to be rich in strong results.
PROPERTY: Percent Effect (%)

In [3]: df
Out[3]:
                                    molecule        property  unit_label  reading
 0  COCC(=O)N1CCN(S(=O)(=O)c2ccccc2)[C@H]2CS(=O)(=O)C[C@H]21  Percent Effect           %     2.66
 1  COc1cccc(-c2ncc(CN3C[C@@H]4CC[C@H](C3)N(C)C4=O)s2)c1  Percent Effect           %    -4.12
 2           O=c1c(CN2CCOCC2)coc2ccc(Cl)cc12  Percent Effect           %     28.3
 3  c1ncc2c(n1)CN(CC1CCCCO1)CC2 (centres undefined)  Percent Effect           %     84.6
 4  CC(C)CS(=O)(=O)N1C[C@H]2C[C@H](C(=O)Nc3cccnc3)[C@@H](C1)O2  Percent Effect           %   -0.957
 5  CC(C)n1nc2c(cc1=O)CN(CC1CCCCO1)CC2 (centres undefined)  Percent Effect           %     11.8
 6  COc1ccc(CN2C[C@@H]3COC[C@@H](CC(=O)N4CCCC4)[C@@H]3C2)cc1  Percent Effect           %     4.49
 7  CO[C@H]1CC[C@H]2[C@H]1OCCN2C(=O)CC1=CCCCC1  Percent Effect           %     18.1
 8  COc1ccc(C2CC(=O)NCc3nc(N(C)C)sc32)c(O)c1 (centres undefined)  Percent Effect           %     1.01
 9  Cn1cccc1C(=O)N1C[C@H](OCC2CCOCC2)[C@H]2COC[C@H]21  Percent Effect           %     3.49
10  O=c1c(CN2CC3CCCN3C[C@@H]2CCO)coc2ccc(Cl)cc12 (some centres undefined)  Percent Effect           %    0.683
11  COCCN1C(=O)CO[C@H]2CN(Cc3ccccc3Cl)C[C@@H]21  Percent Effect           %     3.69
12  Cn1ncc2c1NC(=O)CC2c1c(F)cccc1Cl (centres undefined)  Percent Effect           %     2.46
13  COc1ccc(C2CC(=O)Nc3nc(N4CCOCC4)sc32)cc1 (centres undefined)  Percent Effect           %     82.2
14  CSCC[C@H]1CN2CCC[C@H]2CN1Cc1coc2ccc(C)cc2c1=O  Percent Effect           %    -1.05
15  O=C(c1cscn1)N1CC[C@@H]2[C@@H]1CCN2C1CCOCC1  Percent Effect           %     1.62
16  CCn1ncnc1C1CC(=O)NCc2nc(N3CCOCC3)sc21 (centres undefined)  Percent Effect           %    0.366
17  CCn1nc2c(cc1=O)CN(CC1CCCCO1)CC2 (centres undefined)  Percent Effect           %    -3.92
18  COc1ccc(C2CCCN2c2nnc(C)s2)c(OC)c1 (centres undefined)  Percent Effect           %    -1.09
19  CCCn1nc2c(cc1=O)CN(CC1CCCCO1)CC2 (centres undefined)  Percent Effect           %     8.29
20  CNc1nc2c(s1)C(c1c(F)cccc1Cl)CC(=O)N2 (centres undefined)  Percent Effect           %       70
21           O=c1c(CN2CCCCC2)coc2ccc(Cl)cc12  Percent Effect           %     62.1
22                 Cc1cc(CN2CCc3cncnc3C2)no1  Percent Effect           %     8.95
23  CNc1nc2c(s1)C(c1c(Cl)cccc1Cl)CC(=O)N2 (centres undefined)  Percent Effect           %     35.2

Source: ChEMBL document CHEMBL3988442
